target: huCMKLR1 (Homo sapiens); test: Transwell chemotaxis of huCMKLR1/L1.2 transfectants to chemerin
Listed here: items and their measured IC50.
Give a bare numeral; the unit µM is implied.

{"columns": ["molecular.string", "IC50 (µM)"],
 "data": [
  ["CN(C)CCC(=O)c1cccc2ccccc12", 77]
]}

Here's the next entry for you.
[in] Recorded IC50 for C[N+](C)(C)CCC(=O)c1cccc2ccccc12.[I-] , please?
[out] 6.5

---

target: UniProtKB P61073
Sequence (P61073 whole entry): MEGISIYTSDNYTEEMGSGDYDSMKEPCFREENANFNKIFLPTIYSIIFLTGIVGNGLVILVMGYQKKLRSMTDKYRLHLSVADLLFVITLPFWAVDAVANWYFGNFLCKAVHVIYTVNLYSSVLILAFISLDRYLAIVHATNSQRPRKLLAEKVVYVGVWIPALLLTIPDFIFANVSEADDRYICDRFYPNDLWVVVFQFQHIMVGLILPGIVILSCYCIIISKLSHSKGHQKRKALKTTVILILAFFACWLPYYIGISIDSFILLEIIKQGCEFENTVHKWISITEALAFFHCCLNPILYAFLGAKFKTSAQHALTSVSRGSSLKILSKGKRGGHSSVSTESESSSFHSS
pIC50: −log10 of the molar value.
experimental.endpoint: pIC50

[in] Find pIC50 (UniProtKB P61073) for the entry C[N+](C)(C)CCC(=O)c1cccc2ccccc12.[I-]
[out] ≤ 5.00

---

Target: huCMKLR1 (Homo sapiens, UniProt Q99788)
Sequence (Q99788 whole entry): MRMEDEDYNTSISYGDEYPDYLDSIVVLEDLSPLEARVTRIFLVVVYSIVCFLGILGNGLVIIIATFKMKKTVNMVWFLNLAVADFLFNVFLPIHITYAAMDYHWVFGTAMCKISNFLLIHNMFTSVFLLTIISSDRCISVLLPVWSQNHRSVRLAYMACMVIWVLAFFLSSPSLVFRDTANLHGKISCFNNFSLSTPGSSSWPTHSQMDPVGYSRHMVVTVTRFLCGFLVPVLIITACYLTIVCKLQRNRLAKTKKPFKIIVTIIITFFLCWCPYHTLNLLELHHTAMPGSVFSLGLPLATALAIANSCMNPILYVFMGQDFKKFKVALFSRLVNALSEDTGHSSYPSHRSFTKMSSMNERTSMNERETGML
Assay: β-arrestin2 (β-ARR2) enzymatic complementation assay, CMKLR1/CHO cells
Type: cell-based
Parameters: host or cells: CHO
Settings: IC50 (µM), β-arrestin, huCMKLR1, mean±SEM, n = 3-14 independent experiments
Excerpt: The engagement of a chemoattractant receptor by its cognate ligand stimulates the recruitment of β-arrestin to the carboxyl-terminus of the receptor, an event that results in receptor internalization and termination of G protein-mediated signaling. […] The special association of these molecules leads to enzyme activity, which is detected by a chemiluminescent substrate.
experimental.endpoint: IC50 (µM)
Give a bare numeral; the unit µM is implied.

[in] Find IC50 (huCMKLR1 (Homo sapiens, UniProt Q99788)) for the entry C[N+](C)(C)CCC(=O)c1cccc2ccccc12.[I-]
[out] 0.38

---

target: huCMKLR1 (Homo sapiens); test: β-arrestin2 (β-ARR2) enzymatic complementation assay, CMKLR1/CHO cells; format: cell-based; parameters: host or cells: CHO; conditions: mean±SEM, n = 3-14 independent experiments; read-out: IC50 (µM), β-arrestin, huCMKLR1
experimental.endpoint: IC50 (µM)
Give a bare numeral; the unit µM is implied.

[in] Recorded IC50 for CN(C)CCC(=O)c1cccc2ccccc12 , please?
[out] 7.5

---

target: CXCR5 (Homo sapiens, UniProt P32302)
Sequence (P32302 whole entry): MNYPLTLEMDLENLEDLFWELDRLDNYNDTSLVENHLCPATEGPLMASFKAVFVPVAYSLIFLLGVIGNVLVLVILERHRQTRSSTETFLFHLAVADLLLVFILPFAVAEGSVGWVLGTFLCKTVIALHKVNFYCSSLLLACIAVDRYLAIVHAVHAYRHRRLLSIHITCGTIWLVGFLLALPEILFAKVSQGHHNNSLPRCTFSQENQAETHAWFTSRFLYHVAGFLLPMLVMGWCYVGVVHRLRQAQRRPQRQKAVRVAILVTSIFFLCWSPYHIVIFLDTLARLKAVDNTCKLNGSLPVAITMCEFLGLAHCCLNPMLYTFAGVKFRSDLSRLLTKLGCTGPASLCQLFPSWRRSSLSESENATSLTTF
experimental.endpoint: IC50

[in] Recorded IC50 for C[N+](C)(C)CCC(=O)c1cccc2ccccc12.[I-] [α-NETA] , please?
[out] ≥ 10 µM
